TESTED ON: EGFR (Homo sapiens, UniProt P00533)
Sequence (P00533 25-1210): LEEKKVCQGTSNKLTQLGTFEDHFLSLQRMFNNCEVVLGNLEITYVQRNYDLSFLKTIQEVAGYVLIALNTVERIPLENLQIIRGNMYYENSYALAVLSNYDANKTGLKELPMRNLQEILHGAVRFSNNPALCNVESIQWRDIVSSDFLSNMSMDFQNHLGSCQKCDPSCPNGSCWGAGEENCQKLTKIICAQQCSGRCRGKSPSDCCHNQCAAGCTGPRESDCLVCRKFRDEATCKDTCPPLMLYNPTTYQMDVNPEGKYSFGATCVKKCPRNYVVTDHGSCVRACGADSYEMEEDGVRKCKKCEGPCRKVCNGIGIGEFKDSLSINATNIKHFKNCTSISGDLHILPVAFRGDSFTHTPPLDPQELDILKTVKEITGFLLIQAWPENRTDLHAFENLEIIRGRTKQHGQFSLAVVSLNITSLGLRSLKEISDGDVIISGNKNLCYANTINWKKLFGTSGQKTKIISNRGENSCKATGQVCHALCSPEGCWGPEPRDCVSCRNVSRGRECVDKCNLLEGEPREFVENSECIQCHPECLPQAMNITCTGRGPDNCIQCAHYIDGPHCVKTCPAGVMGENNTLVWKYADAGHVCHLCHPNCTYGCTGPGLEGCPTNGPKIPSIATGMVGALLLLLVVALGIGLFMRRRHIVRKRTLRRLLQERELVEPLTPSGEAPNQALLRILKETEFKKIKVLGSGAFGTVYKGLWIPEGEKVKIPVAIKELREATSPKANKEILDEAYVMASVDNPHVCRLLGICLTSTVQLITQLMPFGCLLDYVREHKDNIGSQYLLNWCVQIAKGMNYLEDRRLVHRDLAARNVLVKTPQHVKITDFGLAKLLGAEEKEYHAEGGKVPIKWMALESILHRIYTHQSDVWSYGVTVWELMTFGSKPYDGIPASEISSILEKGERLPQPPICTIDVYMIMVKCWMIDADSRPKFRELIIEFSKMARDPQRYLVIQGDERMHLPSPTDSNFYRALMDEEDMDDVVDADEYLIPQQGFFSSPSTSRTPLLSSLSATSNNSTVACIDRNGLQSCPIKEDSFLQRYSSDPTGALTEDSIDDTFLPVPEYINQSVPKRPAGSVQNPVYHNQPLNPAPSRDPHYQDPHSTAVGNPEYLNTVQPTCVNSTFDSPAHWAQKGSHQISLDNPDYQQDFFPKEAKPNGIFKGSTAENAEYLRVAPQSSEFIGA
PROCEDURE TEXT: EGFR signaling (pEGFR Tyr1068/total EGFR MSD) in A431 cells
Type: cell-based
Set-up: endogenous in cells; host or cells: A431, N87
SETTINGS: A431 cells; read-out: A431 pEGFR EC50
Recorded measurements of EC50, one per entry

Please review the entries below; each comes with its answer.
Cc1ccc(Oc2ccc(Nc3ncnc4sc5c(c34)C(C)CN(C(=O)/C=C/CN(C)C(C)(C)C)C5)cc2C)cn1 (stereo not shown) [Compound 175]
< 100 nM
C=CC(=O)N1[C@H](C)Cc2c(sc3ncnc(Nc4ccc(Oc5ccc(C)nc5)c(C)c4)c23)[C@H]1C (racemic) [Compound 166]
100 to 1000 nM
Cc1cc(Nc2ncnc3sc4c(c23)CCN(C(=O)/C=C/CN(C)C)C4)ccc1Oc1ccc(N(C)C)nc1 [Compound 158]
100 to 1000 nM

Let's switch to this compound now.
Field EC50 (system: EGFR (Homo sapiens, UniProt P00533)) for entry Cc1ccc(Oc2ccc(Nc3ncnc4sc5c(c34)CCN(C(=O)/C=C/CNC3CC3)C5)cc2C)cn1 [Compound 40] = < 100 nM

---

For reference, IC50 measured on HER2 WT (Homo sapiens, UniProt P04626):

Please review the entries below; each comes with its answer.
Cc1ccc(Oc2ccc(Nc3ncnc4sc5c(c34)CCN(C(=O)/C=C/CN(C)C)C5)cc2C)cn1
< 100 nM
Cc1ccc(Oc2ccc(Nc3ncnc4sc5c(c34)CCN(C(=O)/C=C/CN3CC4CC4(CO)C3)C5)cc2C)cn1 (stereo not drawn)
< 100 nM

Let's switch to this compound now.
Field IC50 (system: HER2 WT (Homo sapiens, UniProt P04626)) for entry COc1ccc(Oc2ccc(Nc3ncnc4sc5c(c34)CCN(C(=O)/C=C/CN3CC[C@H](CO)C3)C5)cc2C)cn1 = < 100 nM

---

TESTED ON: HER2YVMA (Homo sapiens, UniProt P04626, INS775YVMA)
Sequence (P04626 with tags, fused parts or gaps INS775YVMA): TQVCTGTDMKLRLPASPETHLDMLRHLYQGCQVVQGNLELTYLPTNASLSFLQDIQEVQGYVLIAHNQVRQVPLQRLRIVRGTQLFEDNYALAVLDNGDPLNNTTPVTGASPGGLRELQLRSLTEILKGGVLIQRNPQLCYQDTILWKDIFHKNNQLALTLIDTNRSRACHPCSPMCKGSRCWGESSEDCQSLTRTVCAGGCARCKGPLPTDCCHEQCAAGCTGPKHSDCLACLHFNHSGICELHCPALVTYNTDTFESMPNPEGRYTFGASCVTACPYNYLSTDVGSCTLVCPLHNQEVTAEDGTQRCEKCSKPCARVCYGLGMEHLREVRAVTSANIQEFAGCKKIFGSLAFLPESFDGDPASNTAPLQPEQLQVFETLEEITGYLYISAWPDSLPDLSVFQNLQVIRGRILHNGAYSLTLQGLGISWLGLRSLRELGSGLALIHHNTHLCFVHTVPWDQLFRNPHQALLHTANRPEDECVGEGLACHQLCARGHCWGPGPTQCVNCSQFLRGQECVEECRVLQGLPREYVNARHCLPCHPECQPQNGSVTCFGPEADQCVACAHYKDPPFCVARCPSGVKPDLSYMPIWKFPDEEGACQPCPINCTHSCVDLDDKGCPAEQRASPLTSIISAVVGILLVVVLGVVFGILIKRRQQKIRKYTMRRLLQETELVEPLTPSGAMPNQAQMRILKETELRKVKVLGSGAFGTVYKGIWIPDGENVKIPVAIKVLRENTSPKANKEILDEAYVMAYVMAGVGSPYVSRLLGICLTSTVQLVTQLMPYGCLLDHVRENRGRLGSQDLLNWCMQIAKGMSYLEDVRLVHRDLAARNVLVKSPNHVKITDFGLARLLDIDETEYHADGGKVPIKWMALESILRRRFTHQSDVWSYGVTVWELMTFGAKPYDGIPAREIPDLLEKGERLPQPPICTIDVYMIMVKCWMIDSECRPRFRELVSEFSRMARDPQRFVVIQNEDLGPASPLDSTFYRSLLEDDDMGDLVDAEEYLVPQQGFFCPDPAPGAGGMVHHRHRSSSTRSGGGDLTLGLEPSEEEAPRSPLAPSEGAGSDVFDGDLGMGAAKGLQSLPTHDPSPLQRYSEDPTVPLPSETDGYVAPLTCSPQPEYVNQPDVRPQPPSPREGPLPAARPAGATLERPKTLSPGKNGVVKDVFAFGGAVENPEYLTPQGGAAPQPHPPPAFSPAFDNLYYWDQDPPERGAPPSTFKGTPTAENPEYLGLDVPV
PROCEDURE TEXT: HER2 occupancy assay in Ba/F3-HER2YVMA cells
Type: cell-based
Set-up: expressed in transfected cells; host or cells: Ba/F3 (clones); lentiviral vector pCDH-CMV-MCS-EF1-Neo
SETTINGS: concentration at which 50% of HER2 is irreversible bound, read-out: Ba/F3 YVMA HER2 Occ
pEC50: −log10 of the molar value. Structures can show the parent of a compound that is named as a salt.
Recorded measurements of pEC50, one per entry

Value of pEC50 reported for the compound Cc1ccc(Oc2ccc(Nc3ncnc4sc5c(c34)CCN(C(=O)/C=C/CN3CCOCC3)C5)cc2C)cn1 [Compound 17] is > 7.00

Value of pEC50 reported for the compound Cc1ccc(Oc2ccc(Nc3ncnc4sc5c(c34)CCN(C(=O)/C=C/CN(C)C)C5)cc2C)cn1 [Compound 8] is > 7.00

Value of pEC50 reported for the compound Cc1ccc(Oc2ccc(Nc3ncnc4sc5c(c34)CCN(C(=O)/C=C/CN3CC4CCC(C4)C3)C5)cc2C)cn1 [Compound 16, benzenesulfonate salt] is > 7.00

---

Recorded measurements of EC50, one per entry
TESTED ON: EGFR (Homo sapiens, UniProt P00533)
PROCEDURE TEXT: EGFR signaling (pEGFR Tyr1068/total EGFR MSD) in A431 cells
Type: cell-based
Design: endogenous in cells; host or cells: A431, N87
SETTINGS: A431 cells; read-out: A431 pEGFR EC50

C=CC(=O)N1Cc2sc3ncnc(Nc4ccc(Oc5ccc(C)nc5)c(C)c4)c3c2C(C)C1 (single isomer, unassigned) [Compound 146]
< 100 nM

Field EC50 (system: EGFR (Homo sapiens, UniProt P00533)) for entry Cc1ccc(Oc2ccc(Nc3ncnc4sc5c(c34)C(C)CN(C(=O)C=CCN3CCOCC3)C5)cc2C)cn1 (single isomer, unassigned) [Compound 177] = 100 to 1000 nM

Field EC50 (system: EGFR (Homo sapiens, UniProt P00533)) for entry Cc1ccc(Oc2ccc(Nc3ncnc4sc5c(c34)CCN(C(=O)/C=C/CN3CC4CC3CO4)C5)cc2C)cn1 (stereo not drawn) = < 100 nM

Field EC50 (system: EGFR (Homo sapiens, UniProt P00533)) for entry Cc1ccc(Oc2ccc(Nc3ncnc4sc5c(c34)CCN(C(=O)/C=C/CN3C4CCC3CC4)C5)cc2C)cn1 = 100 to 1000 nM

Field EC50 (system: EGFR (Homo sapiens, UniProt P00533)) for entry Cc1ccc(Oc2ccc(Nc3ncnc4sc5c(c34)CCN(C(=O)/C=C/CN3CC4(C3)CS(=O)(=O)C4)C5)cc2C)cn1 = < 100 nM

Field EC50 (system: EGFR (Homo sapiens, UniProt P00533)) for entry COc1ccc(Oc2ccc(Nc3ncnc4sc5c(c34)CCN(C(=O)/C=C/CN3CCOCC3)C5)cc2C)cn1 = 100 to 1000 nM
